- Tested on: HIV-1 strain NL4.3
- assay_comment: Anti-HIV-1 assay in MT-4 cells (p24 Ag ELISA, Example 3)
- Format: cell-based
- settings: Human immunodeficiency virus 1, MT4; MT-4 cells; read-out: IC50 HIV-1 (NL4.3), p24 Ag ELISA
measurement_label: IC50 (µg/mL)

I: C=C1CN(S(=O)(=O)c2ccc(C)cc2)CCCN(CC(C)C)CCCN(S(=O)(=O)c2ccc(C)cc2)C1 [Compound 98-035]
II: C=C1CN(S(=O)(=O)c2ccc(C)cc2)CCCN(CCC(C)C)CCCN(S(=O)(=O)c2ccc(C)cc2)C1 [QJ038]
III: C=C1CN(S(=O)(=O)c2ccc(Br)cc2)CCCN(Cc2ccccc2)CCCN(S(=O)(=O)c2ccc(Br)cc2)C1 [AS-PB127]
Query: I'd appreciate it if you sorted the entries above by their IC50, lowest to highest. The response must list the labels following the requested ordering.
Reply: II, III, I
(II: 0.31 µg/mL, III: 1.4 µg/mL, I: 4.82 µg/mL)

1: Cc1ccc(S(=O)(=O)N2CCCN(Cc3ccccc3)CCCN(S(=O)(=O)c3ccc(C)cc3)CC(CCl)C2)cc1 [AS117]
2: C=C1CN(S(=O)(=O)c2ccc(C)cc2)CCCN(CC2CC=CCC2)CCCN(S(=O)(=O)c2ccc(C)cc2)C1 (stereo not drawn) [QJ023]
3: C=C1CN(S(=O)(=O)c2ccc(C)cc2)CCCN(Cc2ccncc2)CCCN(S(=O)(=O)c2ccc(C)cc2)C1 [QJ030]
Query: List these items ordered by IC50, big to small. Field: ranking. Enter the labels in the order requested.
Reply: 3, 1, 2
